- System: HCT-15
PROPERTY_MEASURED: inhibition (%)
Report as a plain number; the unit % is understood.

COc1cccc2c1C(=O)c1c(O)c3c(c(O)c1C2=O)C[C@@](O)(C(=O)CO)C[C@@H]3O[C@H]1C[C@H](N)[C@H](O)[C@H](C)O1 [adriamycin, reference compound] tested on HCT-15 gave inhibition: 42.8

====

- System: U-373MG
- EXPERIMENT_NOTES: MTT test, cytotoxic activity on non-clonogenic cell lines
- Assay type: cell-based
- PROTOCOL_CONDITIONS: Homo sapiens, U373 MG; 10^−5 M, 72 hours of incubation, control condition = 100%, mean value; read-out: mean optical density as percentage of control, U-373MG
- Method: The principle of the MTT test is based on the mitochondrial reduction, by the metabolically active live cells, of the yellow-colored product MTT (3-(4,5-dimethylthiazol-2-yl)-2,5-diphenyltetrazolium bromide) to a blue-colored product, formazan. The amount of formazan thus obtained is directly proportional to the amount of live cells present in the culture well(s). This amount of formazan is measured by spectrophotometry. […]
PROPERTY_MEASURED: viability at 10 µM

Reference set (3 entries):
Value of measured viability at 10 µM for the entry COc1ccc(OC)c2c1c(=O)c(-c1ccccc1)cn2C : 83.5%

Value of measured viability at 10 µM for the entry COc1ccc(-c2cn(CCN(C)C)c3c(OC)ccc(OC)c3c2=O)cc1 : 101%

Value of measured viability at 10 µM for the entry CCN(CC)C(=O)Cn1cc(-c2ccc(OC)cc2)c(=O)c2c(OC)cc(OC)cc21 : 66.7%

New cases:
Value of measured viability at 10 µM for the entry COc1ccc(-c2cn(CC#N)c3c(OC)ccc(OC)c3c2=O)cc1 : 66.4%

Value of measured viability at 10 µM for the entry CCc1ccc(OC)c2c1c(=O)c(-c1ccc(OC)cc1)cn2C : 81.7%

Value of measured viability at 10 µM for the entry COc1ccc(-c2cn(CCCC#N)c3c(OC)ccc(OC)c3c2=O)cc1 : 81.7%

Value of measured viability at 10 µM for the entry COc1ccc(-c2c[nH]c3c(OC)ccc(OC)c3c2=O)cc1 : 52.8%

Value of measured viability at 10 µM for the entry CCN(CC)C(=O)Cn1cc(-c2ccc(OC)cc2)c(=O)c2c(OC)ccc(OC)c21 : 101%

Value of measured viability at 10 µM for the entry COc1ccc(-c2c[nH]c3cc(OC)ccc3c2=O)cc1 : 41%
